Kindly supply the reported Anti-CD28 Fab signal in the presence of CD28 values for the records listed here.
- ASSAYED_TARGET: Anti-CD28 Fab (SEQ ID NOs: 696, 697)
- Sequence (VH, as listed by the source, chain 1 of 2): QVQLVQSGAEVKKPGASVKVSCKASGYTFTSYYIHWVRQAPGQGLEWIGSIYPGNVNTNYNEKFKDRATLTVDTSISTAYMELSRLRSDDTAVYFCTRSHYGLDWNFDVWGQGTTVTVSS
- Sequence (VL, as listed by the source, chain 2 of 2): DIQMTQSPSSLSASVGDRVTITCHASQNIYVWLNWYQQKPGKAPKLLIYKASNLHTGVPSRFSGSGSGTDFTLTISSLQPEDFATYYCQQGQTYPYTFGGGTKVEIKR
- ASSAY_PROCEDURE: phage binding ELISA; Fab-coated wells pre-incubated with CD28 antigen as competitor, anti-M13 HRP detection;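 also: crude clonal phage supernatants added without washing after the CD28 pre-incubation, with wells given blocking buffer only (no CD28) as the reference, bound phage read after washing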
Where no end group is shown, it is not given here.

Req: Consider the binder LCSAGAMYPWPTCL [Phage-1369 peptide (Peptide-92 library sequence, SEQ ID NO: 1665)] and give its recorded Anti-CD28 Fab signal in the presence of CD28.
Resp: 0.07

Req: Consider the binder TCAAGAHYSWPACF [Phage-1370 peptide (Peptide-92 library sequence, SEQ ID NO: 1666)] and give its recorded Anti-CD28 Fab signal in the presence of CD28.
Resp: 0.07

Req: Consider the binder TCSAGASYPWPLCL [Phage-1363 peptide (Peptide-92 library sequence, SEQ ID NO: 1659)] and give its recorded Anti-CD28 Fab signal in the presence of CD28.
Resp: 0.08

Req: Consider the binder TCSAGATWSWPMCL [Phage-1368 peptide (Peptide-92 library sequence, SEQ ID NO: 1664)] and give its recorded Anti-CD28 Fab signal in the presence of CD28.
Resp: 0.09

Req: Consider the binder SCAAGAMWPWPVCV [Phage-1362 peptide (Peptide-92 library sequence, SEQ ID NO: 1658)] and give its recorded Anti-CD28 Fab signal in the presence of CD28.
Resp: 0.13

Req: Consider the binder RCAAGASYPWPPCL [Phage-1372 peptide (Peptide-92 library sequence, SEQ ID NO: 1668)] and give its recorded Anti-CD28 Fab signal in the presence of CD28.
Resp: 0.05

Req: Consider the binder SCKPGVANYWPWCL [Phage-1364 peptide (Peptide-92 library sequence, SEQ ID NO: 1660)] and give its recorded Anti-CD28 Fab signal in the presence of CD28.
Resp: 0.1

Req: Consider the binder MCSAGAMYSWPLCL [Phage-1365 peptide (Peptide-92 library sequence, SEQ ID NO: 1661)] and give its recorded Anti-CD28 Fab signal in the presence of CD28.
Resp: 0.08

Req: Consider the binder MCAAGATYPWPACL (cysteine pairing not given here; also: fused to phage pIII protein) [Phage-1361 peptide (Peptide-92 library sequence, SEQ ID NO: 1657)] and give its recorded Anti-CD28 Fab signal in the presence of CD28.
Resp: 0.06

Req: Consider the binder LCAAGATYPWPFCL [Phage-1366 peptide (Peptide-92 library sequence, SEQ ID NO: 1662)] and give its recorded Anti-CD28 Fab signal in the presence of CD28.
Resp: 0.07

Req: Consider the binder TCKAGATYLWPFCL [Phage-1373 peptide (Peptide-92 library sequence, SEQ ID NO: 1669)] and give its recorded Anti-CD28 Fab signal in the presence of CD28.
Resp: 0.08

Req: Consider the binder TCAAGATYPWPSCL [Phage-1371 peptide (Peptide-92 library sequence, SEQ ID NO: 1667)] and give its recorded Anti-CD28 Fab signal in the presence of CD28.
Resp: 0.06

Req: Consider the binder TCSAGATYAWPFCL [Phage-1360 peptide (Peptide-92 library sequence, SEQ ID NO: 1656)] and give its recorded Anti-CD28 Fab signal in the presence of CD28.
Resp: 0.06

Req: Consider the binder MCAAGANYPWPQCL (cysteine pairing not given here; also: fused to phage pIII protein) [Phage-1367 peptide (Peptide-92 library sequence, SEQ ID NO: 1663)] and give its recorded Anti-CD28 Fab signal in the presence of CD28.
Resp: 0.08

The reported numbers originate from patent US20260242478A1.
